Data origin, for the record: PubChem BioAssay AID463173

# System: Wild type
# measurement_protocol: S. aureus survival, RN4220 and DeltatarO strains – OD600, teichoic acid synthesis inhibitors, primary screen (AID 463173)
# experimental_context: S. aureus RN4220 wild type/DeltatarO growth, OD600, 18 h, screened at 18.75 µg/mL (by protocol)
Screen size: about 52,000 compounds; about 1,700 (3.3%) were called active. Cut-off read from the data, not from the text of the source: active = survival mostly below about 52% (no sharp cut-off); inactive = mostly above about 56%. For the sample, actives were picked, then their nearest neighbours and some compounds at random.
Form entry, call: pick from True for active, False for inactive

Ask: // return assay outcome for Cc1ccc(OC(=O)c2cc(-c3ccc4c(c3)OCCO4)on2)c(C)c1
Result: True

Ask: Per the assay record, what outcome was assigned to COc1ccc2c(c1)c1c(c(=O)n(Cc3ccccc3)c(=O)n1Cc1ccccc1)n2C ?
Result: True

Ask: Could you kindly confirm the outcome this assay logged for CC(C)c1ccc(OC(=O)c2cc(-c3ccccc3)on2)cc1 ?
Result: False

Ask: So what was the verdict on COc1ccc(NC(=O)Cn2cnc3ccc(S(=O)(=O)N4CCC(C)CC4)cc3c2=O)cc1Cl in this test?
Result: False

Ask: Could you kindly confirm the outcome this assay logged for COc1ccc(NC(=O)c2oc3ccccc3c2NC(=O)c2cc(C)cc(C)c2)c(OC)c1 ?
Result: False

Ask: What outcome does the record of this test show for COc1cccc(Cn2c(=O)n(Cc3ccccc3)c(=O)c3c2c2cc(OC)ccc2n3C)c1 ?
Result: False

Ask: For Cc1cccc(CCNC(=O)CN(c2ccc(C(C)C)cc2)S(=O)(=O)c2c(C)nn(C)c2C)c1 , which call appears in the assay record?
Result: False

Ask: Lab log entry: Cc1ccc(Cl)cc1NC(=O)c1cc(-c2ccc3c(c2)OCCO3)on1 — outcome as called in the assay?
Result: False

Ask: Called result for Cc1ccc(OC(=O)c2cc(-c3ccc(Cl)cc3)on2)c(C)c1
Result: False

Ask: Could you kindly confirm the outcome this assay logged for Cc1ccccc1OC(=O)c1cc(-c2ccc3c(c2)OCCO3)on1 ?
Result: True
